# Target Under Test: Prostaglandin G/H synthase 1 (Ovis aries)
# Assay Method Text: Inhibition of sheep COX1 assessed as PGE2 level at 50 uM by ELISA
Measured Attribute: inhibition (%)

See these solved cases before continuing.
* Cc1noc2c(Cc3ccccc3)nn(CC(=O)N/N=C\c3ccc(C(F)(F)F)cc3)c(=O)c12 | 64
* Cc1noc2c(Cc3ccccc3)nn(CC(=O)N/N=C\c3ccccc3)c(=O)c12 | 50.6
* Cc1ccc(/C=N\NC(=O)Cn2nc(Cc3ccccc3)c3onc(C)c3c2=O)cc1 | 62.1
* Cc1noc2c(Cc3ccccc3)nn(CC(=O)N/N=C\c3ccc(Cl)cc3)c(=O)c12 | 39.6

1 = COc1ccccc1/C=N\NC(=O)Cn1nc(Cc2ccccc2)c2onc(C)c2c1=O
2 = Cc1noc2c(Cc3ccccc3)nn(CC(=O)N/N=C\c3cccc(Cl)c3)c(=O)c12
**Query** // pick larger inhibition from pair: 1 vs 2 Could you answer with the label of the item you picked?
**Result** 1

I = Cc1noc2c(Cc3ccccc3)nn(CC(=O)N/N=C\c3ccc(F)cc3)c(=O)c12
II = COc1ccc2c(c1)c(CC(=O)O)c(C)n2C(=O)c1ccc(Cl)cc1
**Query** Endpoint returns whichever of I and II has the numerically higher inhibition. Respond with the label that goes with your answer.
**Result** II

* * *

# Target Under Test: Prostaglandin G/H synthase 1 (Ovis aries)
# Assay Method Text: Inhibition of sheep COX1 assessed as PGE2 level at 50 uM by ELISA
Measured Attribute: inhibition (%)

Some molecules with recorded inhibition:
* Cc1noc2c(Cc3ccccc3)nn(CC(=O)N/N=C\c3cccc(Br)c3)c(=O)c12 | 42.9
* Cc1noc2c(Cc3ccccc3)nn(CC(=O)N/N=C\c3ccccc3C(F)(F)F)c(=O)c12 | 51
* Cc1noc2c(Cc3ccccc3)nn(CC(=O)N/N=C\c3ccccc3Cl)c(=O)c12 | 52.8
* COc1cccc(/C=N\NC(=O)Cn2nc(Cc3ccccc3)c3onc(C)c3c2=O)c1 | 55.2
* Cc1noc2c(Cc3ccccc3)nn(CC(=O)N/N=C\c3ccccc3F)c(=O)c12 | 41.8
* Cc1ccccc1/C=N\NC(=O)Cn1nc(Cc2ccccc2)c2onc(C)c2c1=O | 46.9
* Cc1noc2c(Cc3ccccc3)nn(CC(=O)N/N=C\c3ccc([N+](=O)[O-])cc3)c(=O)c12 | 40.7

a = Cc1noc2c(Cc3ccccc3)nn(CC(=O)N/N=C\c3cccc([N+](=O)[O-])c3)c(=O)c12
b = Cc1noc2c(Cc3ccccc3)nn(CC(=O)N/N=C\c3cccc(F)c3)c(=O)c12
**Query** Larger number for inhibition: a , or b ? Reply briefly: the label of your chosen item.
**Result** b
(b: 83%, a: 39.6%)

* * *

# Target Under Test: Prostaglandin G/H synthase 1 (Ovis aries) (UniProt P05979)
# Sequence (P05979 whole entry): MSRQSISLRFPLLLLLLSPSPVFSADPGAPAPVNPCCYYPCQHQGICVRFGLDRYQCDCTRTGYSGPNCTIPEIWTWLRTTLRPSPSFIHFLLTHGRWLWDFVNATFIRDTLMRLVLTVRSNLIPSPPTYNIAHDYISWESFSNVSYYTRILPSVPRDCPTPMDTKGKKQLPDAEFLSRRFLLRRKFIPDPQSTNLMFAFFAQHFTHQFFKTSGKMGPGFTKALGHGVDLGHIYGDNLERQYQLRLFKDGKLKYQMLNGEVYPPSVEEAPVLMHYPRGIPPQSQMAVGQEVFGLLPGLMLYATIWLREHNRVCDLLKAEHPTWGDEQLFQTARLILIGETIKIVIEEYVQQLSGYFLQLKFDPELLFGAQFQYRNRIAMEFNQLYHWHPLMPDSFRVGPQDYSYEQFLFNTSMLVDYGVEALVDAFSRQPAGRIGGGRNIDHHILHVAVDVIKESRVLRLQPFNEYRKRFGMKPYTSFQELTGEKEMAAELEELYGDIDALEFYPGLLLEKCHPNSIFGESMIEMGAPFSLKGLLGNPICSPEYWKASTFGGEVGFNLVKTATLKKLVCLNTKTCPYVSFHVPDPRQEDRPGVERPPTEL
# Assay Method Text: Inhibition of sheep COX1 assessed as PGE2 level at 50 uM by ELISA
Measured Attribute: inhibition (%)

• Cc1noc2c(Cc3ccccc3)nn(CC(=O)N/N=C\c3ccccc3Br)c(=O)c12 = 52.8
• Cc1cccc(/C=N\NC(=O)Cn2nc(Cc3ccccc3)c3onc(C)c3c2=O)c1 = 61
• Cc1noc2c(Cc3ccccc3)nn(CC(=O)N/N=C\c3ccc(Br)cc3)c(=O)c12 = 50.6
• COc1ccc(/C=N\NC(=O)Cn2nc(Cc3ccccc3)c3onc(C)c3c2=O)cc1 = 46.3
• Cc1noc2c(Cc3ccccc3)nn(CC(=O)N/N=C\c3cccc(C(F)(F)F)c3)c(=O)c12 = 47.1
• Cc1noc2c(Cc3ccccc3)nn(CC(=O)N/N=C\c3ccccc3[N+](=O)[O-])c(=O)c12 = 59
